Hey, just so you know, these numbers are from PubChem BioAssay (NCI).

Give measured TGI for each item. Keep answers brief.
Tested on: U251 CNS
PROTOCOL: NCI tumour cell line growth inhibition, 48 h

> print(dat)
                                   compound  test.target  readout.value
1  CCOC(=O)c1sc(=S)c2c(C(=O)c3ccccc3)c(C(=O)c3ccccc3)sc2c1C(=O)OCC     U251 CNS       > 100 µM
2  Cc1ccc(S(=O)(=O)N/N=C2\C(=O)C3CC2C(Cl)C3Cl)cc1 (stereo not given)     U251 CNS       > 100 µM
3  COc1ccc(/C=C2/C(=O)N(C(=O)c3ccc(Cl)cc3)N=C2C)cc1OC     U251 CNS       > 100 µM

List TGI for every entry below, keeping the order given.
1. COc1cc2c(cc1OCCCCCOc1cc(-c3ccc(F)cc3)nc(C)n1)N=C[C@@H]1CCCN1C2=O
2. CCOC(=O)c1cc2c(cc1Cl)SC(N(c1ccc(F)cc1)S(=O)(=O)c1ccc(OC)cc1)=NS2(=O)=O
3. CC1C2CC(C(C3C(=O)C4CC3C(C)(C)C4C)C2=O)C1(C)C (stereo not given)

OUT:
1: > 86.7 µM; 2: 34.7 µM; 3: > 100 µM

List TGI for every entry below, keeping the order given.
1. N#Cc1nc(-c2cccc(Br)c2)cc(-c2ccc(Nc3nc(N4CCCCC4)nc(N4CCCCC4)n3)cc2)c1N
2. NC(=S)N/N=C/c1cc(CN2CCOCC2)c(N)cn1
3. N#Cc1c(NC(=O)c2cccs2)[n+]([O-])c2ccccc2[n+]1[O-]
4. CCCCCCCCCCCCCCCC(=O)NC1CCc2cc(O)c(O)c(O)c2-c2ccc(SC)c(=O)cc21 (stereo not given)
5. O=C1CCC(c2nc3ccccc3o2)C(=O)N1 (stereo not given)
6. Cc1c(C(=O)/C=C/c2ccc(O)cc2)nnn1-c1ccnc2c(C(F)(F)F)cccc12

OUT:
1. 3.38 µM
2. > 100 µM
3. > 100 µM
4. 12.6 µM
5. > 100 µM
6. 69.8 µM

List TGI for every entry below, keeping the order given.
1. C#Cc1cccc(NC(=O)Nc2ccc(NC(=O)CCl)cc2)c1
2. O=c1nc2n(CCO)c(-c3ccccc3)c(-c3ccccc3)nc-2c(=O)[nH]1
3. N=C(c1ccccc1)N1CCCCC1
4. CC1CN=C(NCc2ccccc2)S1 (stereo not given)
5. C=C1C(=O)O[C@H]2[C@H]1CC/C(COC(=O)NCCc1ccc(OC)cc1)=C\CC[C@@]1(C)O[C@@H]21
6. CC(=O)OCC(=O)[C@@]1(O)[C@H](C)C[C@H]2[C@@H]3C=C(C)C4=Cc5c(cnn5-c5ccc(F)cc5)C[C@]4(C)[C@H]3[C@@H](O)C[C@@]21C

OUT:
1. 35.2 µM
2. > 100 µM
3. > 100 µM
4. > 100 µM
5. 23.5 µM
6. 3.27 µM

###

System: OVCAR-4 ovarian
PROTOCOL: NCI tumour cell line growth inhibition, 48 h
OUTCOME MEASURE: TGI (µM)
Answers are plain numbers, in µM.

Some solved cases for reference:
> print(dat)
                                   compound      test.target  readout.value
1  CCOC(=O)CCc1c(C(=O)OCC)[nH]c(/C=C2/NC(=O)C(C)=C2CC)c1C  OVCAR-4 ovarian           8.91
2  O=C1C(NCCc2cc(Br)c(O)c(Br)c2)=CC(=O)c2ncccc21  OVCAR-4 ovarian           16.7
3  Clc1nc(Cl)c2ncn(C/C=C\Cn3cnc4c(Cl)nc(Cl)nc43)c2n1  OVCAR-4 ovarian           3.26

Continue with the next compound.
Record summary for Cc1cccc(C(C)(C)C)c1NC(=O)CC1C(=O)Nc2ccccc2S1=O (centres undefined) : reported TGI = 80.1

###

Tested on: XF 498 CNS
PROTOCOL: NCI tumour cell line growth inhibition, 48 h
OUTCOME MEASURE: TGI (µM)
Numbers only, in µM.

Some solved cases for reference:
> print(dat)
                                   compound  readout.value
1                       C1=CCN(c2ccccc2)CC1           40.6
2  Clc1ccc(C2=Nc3ccccc3SC(c3ccc(Cl)c(Cl)c3)C2)c(Cl)c1 (configuration not stated)             26
3  CCCCCCCCCCCCCCCC(=O)NC1CCc2cc(O)c(O)c(O)c2-c2ccc(SC)c(=O)cc21 (configuration not stated)           29.6
4  O=C(CCN(CCO)CCO)Nc1ccc2c(c1)C(=O)c1ccc(NC(=O)CCN(CCO)CCO)cc1C2=O             25
5   CCCOc1ccc(/C=C/c2cc(OC)c(OC)c(OC)c2)cc1           84.9

Continue with the next compound.
Record summary for C=CCOc1cc2c(cc1C(C)c1ccc(OC)cc1)OCO2 (configuration not stated) : reported TGI = 0.753

###

Test system: NCI-H522 lung
PROTOCOL: NCI tumour cell line growth inhibition, 48 h
Give measured TGI for each item. Keep answers brief.

Some solved cases for reference:
> print(dat)
                                   compound  readout.value
1  CC(=O)OCC(=O)[C@@]1(O)[C@H](C)C[C@H]2[C@@H]3C=C(C)C4=Cc5c(cnn5-c5ccc(F)cc5)C[C@]4(C)[C@H]3[C@@H](O)C[C@@]21C        3.82 µM
2  C/C(=N\NC(N)=S)c1ccc(/C(C)=N/NC(N)=S)cc1       > 100 µM
3  COc1ccc(NC2=C(Sc3nc(C)cc(C)n3)C(=O)N(Cc3ccccc3)C2=O)cc1Cl       > 160 µM

List TGI for every entry below, keeping the order given.
1. O=C1/C(=C/c2cccc([N+](=O)[O-])c2)COc2ccccc21
2. CCN(CC)CCCCC1CCN(CC(=O)N2c3ccccc3NC(=O)c3ccccc32)CC1
3. Cc1sc2ncnc(Sc3nc4ccccc4[nH]3)c2c1C
4. COc1ccc(/C=C/C(=O)NCC(NC(=O)/C=C/c2ccc(OC)c(OC)c2)C(=O)O)cc1OC (centres undefined)
5. O=C(Oc1ccccc1)c1cc(O)c(O)c(O)c1
6. C/C(=N\NC(N)=S)c1ccc2c(c1)OCO2
7. COc1cc2c(/C=C3/C(=O)Nc4ccccc43)c(Cl)n(Cc3ccccc3)c2cc1C

OUT:
["3.1 µM", "> 100 µM", "61.2 µM", "> 100 µM", "42.5 µM", "> 100 µM", "> 100 µM"]

List TGI for every entry below, keeping the order given.
1. CNC(=O)c1cc(Oc2ccc3nc(NC(=O)Nc4ccc(Cl)c(Cl)c4)sc3c2)ccn1
2. CCN=C1NN=C(c2ccccc2)c2cc(Cl)ccc2N1

OUT:
> 100 µM
30.2 µM

List TGI for every entry below, keeping the order given.
1. O=[N+]([O-])c1cccc(-c2nc3sccn3c2-c2ccnc(NCCCNS(=O)(=O)c3ccc(F)cc3)n2)c1
2. Cn1c(=O)nc2n(CCO)c(-c3ccccc3)c(-c3ccccc3)nc-2c1=O
3. Cc1nc2ccccc2nc1NS(=O)(=O)c1ccc(N)cc1
4. CSC(=S)N(C)c1nc(=[N+](C)C)ss1
5. CC1C(=O)N=C2C(=CN(Cc3ccccc3)c3ccccc32)C(=O)N1C (centres undefined)

OUT:
6.02 µM
> 100 µM
> 100 µM
> 100 µM
> 100 µM

List TGI for every entry below, keeping the order given.
1. C#Cc1cccc(NC(=O)Nc2ccc(NC(=O)CCl)cc2)c1
2. CCOC(=O)CNC(=O)C(CSC(=O)N(O)c1ccc(Br)cc1)NC(=O)CCC(N)C(=O)OCC (centres undefined)
3. CCN(CC)c1ccc(/C=C/C2=NN(c3cccc(S(=O)(=O)O)c3)C3(C2)C(Cl)C(=O)N3c2nc3ccccc3s2)cc1 (centres undefined)
4. Clc1nc(Cl)c2ncn(C/C=C\Cn3cnc4c(Cl)nc(Cl)nc43)c2n1
5. O=S(=O)(CC1=NC2C=CC=CC2N=C1)NCc1ccccc1 (centres undefined)
6. CC1(C)OC2C(CO)OC(n3ccc(=O)[nH]c3=O)C2O1 (centres undefined)
7. Cc1cc2c(C(C)C)c(O)c(O)c3coc(/c1=c1/c(C)cc4c(C(C)C)c(=O)c(=O)c5coc1c45)c32
8. COc1ccc2c(c1)c(Cc1c(C)n(C)c3ccc(OC)cc13)c(C)n2C

OUT:
1. 29.3 µM
2. > 50 µM
3. 3.57 µM
4. 4.02 µM
5. > 100 µM
6. > 100 µM
7. 19 µM
8. > 100 µM

List TGI for every entry below, keeping the order given.
1. Cc1cccc2c3c(sc12)C(c1ccc(Cl)cc1)C(C#N)=C(/N=C/c1ccc(Cl)cc1)O3 (centres undefined)
2. CSc1nc(C)cc(Nc2ccc(O)c(CN3CCCCC3)c2)n1
3. O=C1N=C2c3c(sc4c3CCCC4)N=CN2C1N=Nc1ccc(Cl)cc1 (centres undefined)
4. COc1ccc2oc(=N)c(C(N)=S)cc2c1

OUT:
1. 3.12 µM
2. > 100 µM
3. > 100 µM
4. 35.3 µM
